Values were extracted from the supplement of paper PMC11780869.

tested on: Bacillus subtilis; assay: cleaved RNA product abundance (RNA/gDNA barcode ratio) relative to median wild-type variant (ratio to wild type); higher = more accumulation of the downstream cleavage product; details: experiment (reporter, strain, medium): exp 4a: truncated aprE reporter, strain BJT201 with 2% xylose (RNase J1 expressed); cleavage site: cggR-gapA (positions -7 to +36 mutated)
quantity.kind: cleaved RNA product abundance
Give a plain numeric answer without units written out.

Below are worked cases with known answers.
ACAGACGAAGGAGCCGCAAAGAAGTTATTAAGGGATGATTAATCCCTAAATATAAATATCTCTCACTTATTTAAA | 0.599
ACAGACGAAGGAGCCGCAAAGAAGTTATTAAGGGATCAATAATCCCTCAATATAAATTTCTCTCACTTATTTAAA | 0.645
ACAGACGAAGGAGCCGCAAAGAATTTATTAAGGGATGAATAATCCTTCAATATAAATATCTCTCACTTATTTAAA | 0.397
ACAGACGAAGGAGCCGCAAAGAAGTTATTAAGGGATGAAAAATCCCTCAATATAAATGTCTCTCACTTATTTAAA | 0.622
ACAGACGAAGGAGCCGCAAAGAAGTTATTAAGCGATGAATAATCCCTAAATATAAATATCTCTCACTTATTTAAA | 0.207
ACAGACGAAGGAGCCGCAAAGAAGTTATTAAGGGATGAATAATCCCTCACTATAAATATCTCTCACTTATTTAAA | 0.277

Q: I'd like to know its cleaved RNA product abundance. The sequence in question is ACAGACGAAGGAGCCGCAAAGAAGTTATTATGGGATGAATAATCTCTCAATATAAATATCTCTCACTTATTTAAA
A: 0.285

Q: Same read-out for ACAGACGAAGGAGCCGCAAAGAAGTTATTAAGAGATGAATACTCCCTCAATATAAATATCTCTCACTTATTTAAA ?
A: 0.0945

Q: Same read-out for ACAGACGAAGGAGCCGCCAAGAAGTTATTAAGGGATGAATAATCCTTCAATATAAATATCTCTCACTTATTTAAA ?
A: 0.531

Q: Same read-out for ACAGACGAAGGAGCCGCACAGAAGTTACTAAGGGATGAATAATCCCTCAATATAAATATCTCTCACTTATTTAAA ?
A: 0.22

Q: Same read-out for ACAGACGAAGGAGCCGCAAAGAAGTTATTAAGGCGTGAATAATCCCTCAATATAAATATCTCTCACTTATTTAAA ?
A: 0.116

---

system: Bacillus subtilis; test: cleaved RNA product abundance (RNA/gDNA barcode ratio) relative to median wild-type variant (ratio to wild type); higher = more accumulation of the downstream cleavage product; details: experiment (reporter, strain, medium): exp 4a: truncated aprE reporter, strain BJT201 with 2% xylose (RNase J1 expressed); cleavage site: cggR-gapA (positions -7 to +36 mutated)
Classification field: criterion met = cleaved RNA product abundance at or over 0.1; criterion not met = cleaved RNA product abundance under 0.1.

ACAGACGAAGGAGCCGCACAGAAGTTATTAAGGGATGAATAATCCCTCAATATACATATCTCTCACTTATTTAAA | criterion met
ACAGACGAAGGAGCCGCAAAGAAGTTATTAAGGGATGAATAATCACTCGATATAAATATCTCTCACTTATTTAAA | criterion not met
ACAGACGAAGGAGCCGCAAATAAGTTATTAAAGGATGAATAATCCCTCAATATAAATATCTCTCACTTATTTAAA | criterion met
ACAGACGAAGGAGCCGCAAAGAAGTCATTAAGGGATGATTAATCCCTCAATATAAATATCTCTCACTTATTTAAA | criterion met
ACAGACGAAGGAGCCGCAAAGAAGATATTAAGGGATGAATAATCCCCCAATATAAATATCTCTCACTTATTTAAA | criterion met

Q: Does the reported cleaved RNA product abundance for ACAGACGAAGGAGCCGCAAAGGAGTTATTAATGGATGAATAATCCCTCAATATAAATATCTCTCACTTATTTAAA fall at or above the 0.1 mark?
A: criterion met

---

tested on: Bacillus subtilis; assay: cleaved RNA product abundance (RNA/gDNA barcode ratio) relative to median wild-type variant (ratio to wild type); higher = more accumulation of the downstream cleavage product; settings: experiment (reporter, strain, medium): exp 4a: truncated aprE reporter, strain BJT201 with 2% xylose (RNase J1 expressed); cleavage site: cggR-gapA (positions -7 to +36 mutated)
Each entry falls into one class according to its cleaved RNA product abundance; the ranges are lower bin = under 0.1, middle bin = from 0.1 up to 0.4, upper bin = 0.4 and over

// below: answered sequences
ACAGACGAAGGAGCCGCAAAGAAATTAGTAAGGGATGAATAATCCCTCAATATAAATATCTCTCACTTATTTAAA | middle bin
ACAGACGAAGGAGCCGCAAAGAAGTTATTAGTGGATGAATAATCCCTCAATATAAATATCTCTCACTTATTTAAA | middle bin
ACAGACGAAGGAGCCGCAAAGAAGTTATTAAGGAATCAATAATCCCTCAATATAAATATCTCTCACTTATTTAAA | middle bin
ACAGACGAAGGAGCCGCAAAGAAGTTATTCAGGGATGAATAATTCCTCAATATAAATATCTCTCACTTATTTAAA | upper bin
ACAGACGAAGGAGCCGCAAAGAAGTTATTAAGGGTTGAATAATCCCACAATATAAATATCTCTCACTTATTTAAA | lower bin
ACAGACGAAGGAGCCGCAAAGAAGTTATTAAGCGATGACTAATCCCTCAATATAAATATCTCTCACTTATTTAAA | lower bin
ACAGACGAAGGAGCCGCAAAGAAGTTATTAAGGGATGAATAATCCCTCAATATATAGATCTCTCACTTATTTAAA | upper bin
ACAGACGAAGGAGCCGCAAAGAAGTTATTAAGCGATGAATAATCCTTCAATATAAATATCTCTCACTTATTTAAA | middle bin

We now examine a further sequence.
Q: Record ACAGACGAAGGAGCCGCAAAGAAGTAATTAAGGGATGCATAATCCCTCAATATAAATATCTCTCACTTATTTAAA — which class?
A: middle bin

---

system: Bacillus subtilis; experiment: cleaved RNA product abundance (RNA/gDNA barcode ratio) relative to median wild-type variant (ratio to wild type); higher = more accumulation of the downstream cleavage product; conditions: experiment (reporter, strain, medium): exp 4a: truncated aprE reporter, strain BJT201 with 2% xylose (RNase J1 expressed); cleavage site: cggR-gapA (positions -7 to +36 mutated)
quantity.kind: cleaved RNA product abundance
Give a plain numeric answer without units written out.

ACAGACGAAGGAGCCGCAAAGAAGTAATTATGGGATGAATAATCCCTCAATATAAATATCTCTCACTTATTTAAA | 0.169
ACAGACGAAGGAGCCGCAAAGAAGTTATTAAGAGATGAATAATCCCTCAATATACATATCTCTCACTTATTTAAA | 0.136
ACAGACGAAGGAGCCGCAAAGAAGTTAATAAGGGATGAATAATCCCTCAATATAAATAGCTCTCACTTATTTAAA | 0.293
ACAGACGAAGGAGCCGCAAAGAAATTATTAAGAGATGAATAATCCCTCAATATAAATATCTCTCACTTATTTAAA | 0.112
ACAGACGAAGGAGCCGCAAAGAAGTTATAAAGGGATGAATAATTCCTCAATATAAATATCTCTCACTTATTTAAA | 0.293
ACAGACGAAGGAGCCGCAAAGAAATTATTAAGGGATGAATAATCCCTCAATATAAATATCTCTCACTTATTTAAA | 0.783

Could you now consider this next sequence?
Q: I'd like to know its cleaved RNA product abundance. The sequence in question is ACAGACGAAGGAGCCGCAAAGAAGTTATTAAAGGATGAATAATCCCTCAATATAAACATCTCTCACTTATTTAAA
A: 0.206

---

test system: Bacillus subtilis; assay: cleaved RNA product abundance (RNA/gDNA barcode ratio) relative to median wild-type variant (ratio to wild type); higher = more accumulation of the downstream cleavage product; conditions: experiment (reporter, strain, medium): exp 2b: truncated aprE reporter, strain BJT200; cleavage site: cggR-gapA (positions -7 to +36 mutated)
quantity.kind: cleaved RNA product abundance
Give a plain numeric answer without units written out.

Below are worked cases with known answers.
ACAGACGAAGGAGCCGCAAAGAAGATATTAAAGGATGAATAATCCCTCAATATAAATATCTCTCACTTATTTAAA | 0.199
ACAGACGAAGGAGCCGCAAAGAAGTTATTAAGGAATGAATAATCCGTCAATATAAATATCTCTCACTTATTTAAA | 0.0733
ACAGACGAAGGAGCCGCAAAGAAGTTATTAACGGATGAATAATCCCTCAATATAAATATCTCTCACTTATTTAAA | 0.133
ACAGACGAAGGAGCCGCAAAGTACTTATTAAGGGATGAATAATCCCTCAATATAAATATCTCTCACTTATTTAAA | 0.437
ACAGACGAAGGAGCCGCAAAGATGTTATTAAGGGATGAATAATCCCTCAATATAAATATCTCTCACTTATTTAAA | 0.938
ACAGACGAAGGAGCCGCAAAGAAATTATTAAGGGATCAATAATCCCTCAATATAAATATCTCTCACTTATTTAAA | 0.646
ACAGACGAAGGAGCCGCAAAGAAGTTATTAAGGGATGAAAAATACCTCAATATAAATATCTCTCACTTATTTAAA | 0.114
ACAGACGAAGGAGCCGCAAAGAAGTAATTAAGGGATGAATGATCCCTCAATATAAATATCTCTCACTTATTTAAA | 0.134

Q: I'd like to know its cleaved RNA product abundance. The sequence in question is ACAGACGAAGGAGCCGCAAAGTAGTTATTAAGTGATGAATAATCCCTCAATATAAATATCTCTCACTTATTTAAA
A: 0.106

Q: Same read-out for ACAGACGAAGGAGCCGCAAAGAAGTTATTAAGGGATGTATAATCCCTCCATATAAATATCTCTCACTTATTTAAA ?
A: 0.162

Q: Same read-out for ACAGACGAAGGAGCCGCAAAGAAGTTATTAAAGGATGAATCATCCCTCAATATAAATATCTCTCACTTATTTAAA ?
A: 0.178
